target-of-assay: human MGL from HeLa cells (Homo sapiens, UniProt Q99685)
Construct: combining endogenously expressed MGL from HeLa cells with test compounds; endogenous in cells; host or cells: HeLa cells / cell homogenates
method: In vitro MGL activity assay: [glycerol-1,3-3H]-oleyl glycerol cleavage by MGL from HeLa cells
Assay type: biochemical
particulars: 300 nM [Glycerol-1,3-3H]-oleyl glycerol, one hour incubation
Reported IC50 values are given for each entry in this list.
measurement-kind: IC50 (nM)

chemical-smiles: C[C@H]1c2nn(C)c(-c3cc(F)c(F)c(F)c3)c2CCN1C(=O)c1cnn(C)c1C(F)(F)F
measurement-kind: IC50
unit-of-measurement: nM
result-number: 14
//
chemical-smiles: Cn1nc2c(c1-c1ccccc1)CCN(C(=O)c1n[nH]c3ccccc13)C2
measurement-kind: IC50
unit-of-measurement: nM
result-number: 300
//
chemical-smiles: Cn1nc2c(c1-c1ccccc1)CCN(C(=O)c1nc3ccccc3s1)C2
measurement-kind: IC50
unit-of-measurement: nM
result-number: 1640
//
chemical-smiles: COc1cccnc1C(=O)N1CCc2c(nn(C)c2-c2cc(F)c(F)c(F)c2)[C@@H]1C
measurement-kind: IC50
unit-of-measurement: nM
result-number: 113
//
chemical-smiles: C[C@H]1c2nn(C)c(-c3cc(F)c(F)c(F)c3)c2CCN1C(=O)c1cnc2ccccn12
measurement-kind: IC50
unit-of-measurement: nM
result-number: 25.6
//
chemical-smiles: C[C@H]1c2nn(C)c(-c3cc(F)c(F)c(F)c3)c2CCN1C(=O)c1ccc2ncccc2c1
measurement-kind: IC50
unit-of-measurement: nM
result-number: 4.71
//
chemical-smiles: C[C@H]1c2nn(C)c(-c3cc(F)c(F)c(F)c3)c2CCN1C(=O)c1nn(C)c2ncccc12
measurement-kind: IC50
unit-of-measurement: nM
result-number: 23
//
chemical-smiles: Cn1nc2c(c1-c1ccccc1)CCN(C(=O)c1cccc3[nH]ncc13)C2
measurement-kind: IC50
unit-of-measurement: nM
result-number: 101

----------
target-of-assay: human MGL from HeLa cells (Homo sapiens)
Construct: combining endogenously expressed MGL from HeLa cells with test compounds; endogenous in cells; host or cells: HeLa cells / cell homogenates
Sequence (Q99685 1-303): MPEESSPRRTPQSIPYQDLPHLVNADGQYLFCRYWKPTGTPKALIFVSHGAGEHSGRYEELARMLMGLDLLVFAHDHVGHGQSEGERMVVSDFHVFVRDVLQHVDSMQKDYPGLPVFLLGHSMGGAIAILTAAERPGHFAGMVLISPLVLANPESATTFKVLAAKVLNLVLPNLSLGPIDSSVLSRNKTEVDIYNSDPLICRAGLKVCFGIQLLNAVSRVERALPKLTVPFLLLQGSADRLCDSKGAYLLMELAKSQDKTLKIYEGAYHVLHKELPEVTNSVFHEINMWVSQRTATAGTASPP
method: In vitro MGL activity assay: [glycerol-1,3-3H]-oleyl glycerol cleavage by MGL from HeLa cells
Format: biochemical
particulars: 300 nM [Glycerol-1,3-3H]-oleyl glycerol, one hour incubation
Measured IC50 of individual entries

molecule: C[C@H]1c2nn(C)c(-c3cc(F)c(F)c(F)c3)c2CCN1C(=O)c1ccc(OC(F)F)cc1
unit-of-measurement: µM
lt-gt-eq: =
IC50: 0.213
--
molecule: COc1cc(OC)cc(C(=O)N2CCc3c(nn(C)c3-c3ccccc3)C2)c1
unit-of-measurement: µM
lt-gt-eq: =
IC50: 0.187
--
molecule: CCc1c(OC)cccc1C(=O)N1CCc2c(nn(C)c2-c2ccccc2)C1
unit-of-measurement: µM
lt-gt-eq: =
IC50: 1.84
--
molecule: CC1c2nn(C)c(-c3cc4ccccc4n3C)c2CCN1C(=O)c1ccc2ncccc2c1 (centres unmarked)
unit-of-measurement: µM
lt-gt-eq: =
IC50: 0.206
--
molecule: C[C@H]1c2nn(C)c(-c3cc(F)c(F)c(F)c3)c2CCN1C(=O)c1cc(-n2nccn2)ccc1F
unit-of-measurement: µM
lt-gt-eq: =
IC50: 0.0186
--
molecule: Cc1ccc(-n2nccn2)c(C(=O)N2CCc3c(nn(C)c3-c3cc(F)c(F)c(F)c3)[C@@H]2C)c1
unit-of-measurement: µM
lt-gt-eq: =
IC50: 0.06
--
molecule: C[C@H]1c2nn(C)c(-c3cccc(Cl)c3)c2CCN1C(=O)c1ccc2cc[nH]c2n1
unit-of-measurement: µM
lt-gt-eq: =
IC50: 0.274
--
molecule: Cn1ncc(C(=O)N2CCc3c(nn(C)c3-c3ccccc3)C2)c1Cl
unit-of-measurement: µM
lt-gt-eq: =
IC50: 2.09
--
molecule: Cn1nc2c(c1-c1cc3ccccc3n1C)CCN(C(=O)c1ccc3ncccc3c1)C2
unit-of-measurement: µM
lt-gt-eq: =
IC50: 0.406
--
molecule: Cn1nc2c(c1-c1ccccc1)CCN(C(=O)c1ccc3cn[nH]c3c1)C2
unit-of-measurement: µM
lt-gt-eq: =
IC50: 2.19
--
molecule: COc1ccc(C(=O)N2CCc3c(nn(C)c3-c3cc(F)c(F)c(F)c3)[C@@H]2C)cc1-c1ccn(C)n1
unit-of-measurement: µM
lt-gt-eq: =
IC50: 0.182
--
molecule: Cn1nc2c(c1-c1ccccc1)CCN(C(=O)c1ncn3ccccc13)C2
unit-of-measurement: µM
lt-gt-eq: =
IC50: 6.11
--
molecule: C[C@H]1c2nn(C)c(-c3cncc(C(F)(F)F)c3)c2CCN1C(=O)c1ccc2nccnc2c1
unit-of-measurement: µM
lt-gt-eq: =
IC50: 2.23
--
molecule: Cc1cnc2cc(C(=O)N3CCc4c(nn(C)c4-c4cc(Cl)cc(Cl)c4)[C@@H]3C)ccc2n1
unit-of-measurement: µM
lt-gt-eq: =
IC50: 0.00849
--
molecule: CNC(=O)c1cccc(C(=O)N2CCc3c(nn(C)c3-c3cc(F)c(F)c(F)c3)[C@@H]2C)c1
unit-of-measurement: µM
lt-gt-eq: =
IC50: 0.132
--
molecule: COc1cccc(OC)c1C(=O)N1CCc2c(nn(C)c2-c2ccccc2)C1
unit-of-measurement: µM
lt-gt-eq: >
IC50: 10
--
molecule: COc1cc(C(=O)N2CCc3c(nn(C)c3-c3cc(F)c(F)c(F)c3)[C@@H]2C)cc(-n2cnnc2)c1
unit-of-measurement: µM
lt-gt-eq: =
IC50: 0.0187
--
molecule: C[C@H]1c2nn(C)c(-c3cc(F)c(F)c(F)c3)c2CCN1C(=O)c1cnn(C)c1C1CC1
unit-of-measurement: µM
lt-gt-eq: =
IC50: 0.00626
--
molecule: Cc1cccc2cc(C(=O)N3CCc4c(nn(C)c4-c4ccccc4)C3)[nH]c12
unit-of-measurement: µM
lt-gt-eq: =
IC50: 2
--
molecule: C[C@H]1c2nn(C)c(-c3cc(F)c(F)c(F)c3)c2CCN1C(=O)c1c[nH]c2ccncc12
unit-of-measurement: µM
lt-gt-eq: =
IC50: 0.0352
--
molecule: CC(C)Oc1cncc(C(=O)N2CCc3c(nn(C)c3-c3cccc(Cl)c3)[C@@H]2C)c1
unit-of-measurement: µM
lt-gt-eq: =
IC50: 0.0782
--
molecule: Cn1nc2c(c1-c1ccccc1)CCN(C(=O)c1ccc3cc[nH]c3c1)C2
unit-of-measurement: µM
lt-gt-eq: =
IC50: 0.359
--
molecule: Cn1nc2c(c1-c1ccccc1)CCN(C(=O)c1noc3cc(Cl)ccc13)C2
unit-of-measurement: µM
lt-gt-eq: =
IC50: 1.12
--
molecule: C[C@H]1c2nn(C)c(-c3cc(F)cc(F)c3)c2CCN1C(=O)c1cccc(OCCF)c1F
unit-of-measurement: µM
lt-gt-eq: =
IC50: 0.00172
--
molecule: Cn1nc2c(c1-c1ccccc1)CCN(C(=O)c1cccc3occc13)C2
unit-of-measurement: µM
lt-gt-eq: =
IC50: 0.3
--
molecule: C[C@H]1c2nn(C)c(-c3cc(F)c(F)c(F)c3)c2CCN1C(=O)c1ncn(-c2ccccn2)n1
unit-of-measurement: µM
lt-gt-eq: =
IC50: 0.0656
--
molecule: C[C@H]1c2nn(C)c(-c3cc(F)cc(F)c3)c2CCN1C(=O)c1cc(F)cc(OCCF)c1
unit-of-measurement: µM
lt-gt-eq: =
IC50: 0.00421
--
molecule: Cn1nc2c(c1-c1ccccc1)CCN(C(=O)c1ccn3nccc3c1)C2
unit-of-measurement: µM
lt-gt-eq: =
IC50: 2.5
--
molecule: Cc1cc(C(=O)N2CCc3c(nn(C)c3-c3cc(F)c(F)c(F)c3)[C@@H]2C)cc2cn[nH]c12
unit-of-measurement: µM
lt-gt-eq: =
IC50: 0.0006
--
molecule: C[C@H]1c2nn(C)c(-c3cc(F)c(F)c(F)c3)c2CCN1C(=O)c1cnn(C(F)(F)F)c1
unit-of-measurement: µM
lt-gt-eq: =
IC50: 5.08
--
molecule: C[C@H]1c2nn(C)c(-c3cc(F)c(F)c(F)c3)c2CCN1C(=O)c1cc(-n2nccn2)cc(C(F)(F)F)c1
unit-of-measurement: µM
lt-gt-eq: =
IC50: 0.0604
--
molecule: Cn1nc2c(c1-c1ccccc1)CCN(C(=O)c1n[nH]c3c(Cl)cccc13)C2
unit-of-measurement: µM
lt-gt-eq: =
IC50: 0.662

All figures here come from patent US11820766B2.
